Biological target: Follistatin (Homo sapiens)
Test: follistatin binders on small-molecule microarrays, primary screen, biochemical, small-molecule microarray, 635/667 nm fluorescence (AID 1132)
Conditions: FST binding, 635 nm fluorescence, higher = more signal
Field: class. Source value: composite z-score. Ranges: 1: < 0.4; 2: ≥ 0.4 and < 1; 3: ≥ 1

Here's what some known entries look like.
COCCOC(=O)N1C(=O)[C@@]2(c3cc(C#Cc4ccc(OC)cc4)ccc31)[C@H](C(=O)N1CCCCCCC1)[C@H]1C(=O)O[C@H](c3ccccc3)[C@H](c3ccccc3)N1[C@@H]2c1ccccc1OCCO :: 3
COCCOC(=O)N1C(=O)[C@@]2(c3cc(C#Cc4ccc(OC)cc4)ccc31)[C@H](c1ccc(OCCO)cc1)N1[C@H](c3ccccc3)[C@H](c3ccccc3)OC(=O)[C@H]1[C@@H]2C(=O)N1CCCCCCC1 :: 3
COc1ccc([Si](C)(C)[C@H]2[C@H](CCO)O[C@@]3(C(=O)N(Cc4ccc(N5CCOC5=O)cc4)c4ccccc43)[C@@H]2C)cc1 :: 1

## Task Tag the class for CC[C@H](C)C(=O)O[C@H]1CC[C@]2(C)C3=C(CCC2C1(C)C)[C@]1(C)CC[C@H]([C@H](C)CCCC(C)C)[C@@]1(C)CC3 (some centres undefined)
## Result 2

## Task Tag the class for `COc1ccc(CCNC(=O)[C@@H]2c3ccccc3C(=O)N(CC34CC5CC(CC(C5)C3)C4)[C@H]2c2ccc(CO)cc2)cc1`
## Result 3

## Task Tag the class for CCCCN1CC=CC23O[C@@H]4/C=C\CCC(C)OC(=O)C4[C@H]2C(=O)N(C(C)CO)[C@@H]3C1=O (some centres undefined)
## Result 1

## Task Tag the class for CCOC(=O)C1=CCC(c2cc3ccccc3[nH]2)N(S(=O)(=O)c2ccccc2[N+](=O)[O-])C1 (centres undefined)
## Result 2

## Task Tag the class for `COCCOC(=O)N1C(=O)[C@@]2(c3ccccc31)[C@H](c1ccc(OCCO)cc1)N1[C@H](c3ccccc3)[C@H](c3ccccc3)OC(=O)[C@H]1[C@@H]2C(=O)N1CCN(c2ncccn2)CC1`
## Result 3

## Task Tag the class for `COc1ccc([Si](C)(C)[C@H]2[C@H](CCn3cc([C@H](O)c4ccccc4)nn3)O[C@@]3(C(=O)N(c4ccccc4)c4ccccc43)[C@@H]2C)cc1`
## Result 3

## Task Tag the class for `CCCC[C@@H](O)C1=C(COC)Cn2c(=O)n(-c3ccccc3)c(=O)n2[C@H]1CO`
## Result 1

## Task Tag the class for CC(C)c1ccc(NN2C(C(O)C(C)C)C=CC3C(=O)N(c4ccccc4)C(=O)C32)cc1 (centres undefined)
## Result 2

## Task Tag the class for `COc1ccc(NC(=O)O[C@H]2[C@H](OC(=O)Nc3ccc4c(c3)OCO4)[C@H](OC(=O)Nc3ccc4c(c3)OCO4)[C@@H](OC)O[C@@H]2CO)cc1`
## Result 3

## Task Tag the class for `Cc1ccc(S[C@]2(C(=O)NCCCN(C)C)CC(=O)N(Cc3ccccc3Cl)[C@@H]2c2ccc(CO)cc2I)cc1`
## Result 1

## Task Tag the class for `C=C(COC)/C(=C/C[C@H](OC(=O)c1ccncc1)c1ccc(OCCO)cc1)c1cc(C(=O)OC)ccc1OC`
## Result 3

## Task Tag the class for CC(C)C[C@@H]1NC(=O)[C@@]23C(=O)N[C@@H](Cc4ccccc4)C2[C@H](C)[C@@]2(C)O[C@H]2C3/C=C/C/C=C\CNC(=O)[C@@H](CC(C)C)NC1=O (some centres undefined)
## Result 2

## Task Tag the class for `COc1ccc(C#Cc2ccc3c(c2)[C@]2(C(=O)N3)[C@H](c3ccc(OCCO)cc3)N3[C@H](c4ccccc4)[C@H](c4ccccc4)OC(=O)[C@H]3[C@@H]2C(=O)O)cc1`
## Result 3

## Task Tag the class for `CCOC(=O)C1=C[C@@H](C(C)(C)C)N(S(=O)(=O)c2ccc(C)cc2)[C@H]1c1ccccc1Cl`
## Result 2

## Task Tag the class for O=C1NC(=O)C2C1C=CC(C(O)c1cccc(O)c1)N2Nc1ccc(Cl)cc1Cl (centres undefined)
## Result 1

## Task Tag the class for `NC(=O)[C@@]1(CCS(=O)(=O)c2ccccc2)COC(c2ccc(OCCCO)cc2)=N1`
## Result 1

## Task Tag the class for `COc1ccccc1CN1C(=O)c2ccccc2[C@@H](C(=O)NCCCN(C)C)[C@@H]1c1ccc(CO)cc1`
## Result 1

## Task Tag the class for CCN(CC)c1ccc(N2CC=CC34O[C@@H]5C=CCOC(=O)[C@@H]5[C@H]3C(=O)N(CCCO)[C@@H]4C2=O)cc1 (some centres undefined)
## Result 1

## Task Tag the class for CC(=O)c1ccc(C(O)C2C=CC3C(=O)NC(=O)C3N2Nc2ccc(Cl)cc2Cl)cc1 (centres undefined)
## Result 2

Origin of values: PubChem BioAssay
